Please provide measured HDAC2 activity raw data (signal) for the entries that follow.
biological target: HDAC2 (Homo sapiens, UniProt Q92769); construct: purchased Reaction Biology Corporation (assay run by the CRO); assay: HDAC2 inhibition, full IC50 measurement (Reaction Biology; fluorogenic p53 peptide RHKK(Ac)AMC); type: biochemical; details: Conc. 4.12E-08 M, t2
Sequence (Q92769 whole entry): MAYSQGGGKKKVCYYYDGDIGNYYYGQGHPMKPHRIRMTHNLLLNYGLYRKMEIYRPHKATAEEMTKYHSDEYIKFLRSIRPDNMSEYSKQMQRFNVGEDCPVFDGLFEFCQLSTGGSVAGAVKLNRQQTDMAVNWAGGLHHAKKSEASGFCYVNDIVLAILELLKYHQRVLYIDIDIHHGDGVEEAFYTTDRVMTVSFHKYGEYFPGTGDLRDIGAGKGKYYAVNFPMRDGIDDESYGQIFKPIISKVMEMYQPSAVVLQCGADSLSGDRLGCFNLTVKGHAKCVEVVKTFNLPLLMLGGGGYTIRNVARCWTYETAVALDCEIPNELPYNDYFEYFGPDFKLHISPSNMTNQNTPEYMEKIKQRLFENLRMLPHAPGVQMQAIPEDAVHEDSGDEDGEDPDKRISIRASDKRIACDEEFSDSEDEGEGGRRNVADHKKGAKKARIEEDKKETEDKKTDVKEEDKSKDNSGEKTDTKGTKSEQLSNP
Peptide text beside a SMILES is read from it.
Give bare numbers.

Solved entries (count: 2):
* CCCC[C@H]1NC(=O)[C@H](Cc2ccccc2)NC(=O)[C@H](CCCCCS)NC(=O)[C@@H](CCCNC(=N)N)NC(=O)[C@H](C)NC(=O)[C@@H](CO)NC(=O)[C@@H](C)NC(=O)[C@H](CCCCN)NC1=O [des4.3.1.3, SHA-Phe-dNle-Lys-dAla-dSer-Ala-dArg] (HELM PEPTIDE1{A.[dR].[O=C([C@H](CCCCCS)N[*:1])[*:2]].F.[CCCC[C@@H](N[*:1])C(=O)[*:2]].K.[dA].[dS]}$PEPTIDE1,PEPTIDE1,1:R1-8:R2$$$V2.0) | 1738468
* CCCC[C@H]1NC(=O)[C@H](Cc2ccccc2)NC(=O)[C@H](CCCCCS)NC(=O)[C@@H](CCCNC(=N)N)NC(=O)[C@H](CC(=O)O)NC(=O)[C@@H](CO)NC(=O)[C@@H](C)NC(=O)[C@H](CCCCN)NC1=O [des4.3.1, SHA-Phe-dNle-Lys-dAla-dSer-Asp-dArg] (HELM PEPTIDE1{D.[dR].[O=C([C@H](CCCCCS)N[*:1])[*:2]].F.[CCCC[C@@H](N[*:1])C(=O)[*:2]].K.[dA].[dS]}$PEPTIDE1,PEPTIDE1,1:R1-8:R2$$$V2.0) | 1204296

We now examine a further molecule.
HDAC2 activity raw data (signal) in this record for NCCCC[C@H]1NC(=O)[C@H](CCC(N)=O)NC(=O)[C@H](CCC(=O)O)NC(=O)[C@@H]2CCCN2C(=O)[C@H](CC(N)=O)NC(=O)[C@H](CCCCCS)NC(=O)CNC(=O)[C@H](Cc2c[nH]c3ccccc23)NC1=O [des1.1.1, SHA-Asn-Pro-Glu-Gln-dLys-Trp-Gly] (HELM PEPTIDE1{E.Q.[dK].W.G.[O=C([C@H](CCCCCS)N[*:1])[*:2]].N.P}$PEPTIDE1,PEPTIDE1,1:R1-8:R2$$$V2.0) : 655155

* * *

biological target: HDAC2 (Homo sapiens, UniProt Q92769); construct: purchased Reaction Biology Corporation (assay run by the CRO); test: Initial HDAC2 IC50 estimate (BPS Biosciences HDAC fluorogenic assay kit); type: biochemical; conditions: Supplementary Dataset 2; read-out: HDAC2 activity (initial activity)
Peptide text beside a SMILES is read from it.
For each entry below, report its log10(IC50) value.
Remember, log10 of IC50, in nM.

// below: answered molecules
- NCCCC[C@@H]1NC(=O)[C@@H](CC(N)=O)NC(=O)[C@H]2CCCN2C(=O)[C@@H](Cc2c[nH]cn2)NC(=O)[C@H](Cc2ccc(O)cc2)NC(=O)[C@H](CCCCCS)NC(=O)[C@H](CCc2ccccc2)NC1=O [des3.2.4, SHA-Tyr-dHis-dPro-dAsn-Lys-C27] (HELM PEPTIDE1{K.[O=C([C@H](CCc1ccccc1)N[*:1])[*:2]].[O=C([C@H](CCCCCS)N[*:1])[*:2]].Y.[dH].[dP].[dN]}$PEPTIDE1,PEPTIDE1,1:R1-7:R2$$$V2.0): 1.73
- NCCCC[C@H]1NC(=O)[C@H](CCC(N)=O)NC(=O)[C@H](CCC(=O)O)NC(=O)[C@@H]2CCCN2C(=O)[C@H](CC(N)=O)NC(=O)[C@H](CCCCCS)NC(=O)CNC(=O)[C@H](Cc2c[nH]c3ccccc23)NC1=O [des1.1.1, SHA-Asn-Pro-Glu-Gln-dLys-Trp-Gly] (HELM PEPTIDE1{E.Q.[dK].W.G.[O=C([C@H](CCCCCS)N[*:1])[*:2]].N.P}$PEPTIDE1,PEPTIDE1,1:R1-8:R2$$$V2.0): 2.43
- N[C@@H](CCCCCS)C(=O)O [SHA, 2S-2-amino-7-sulfanylheptanoic acid]: 3.70
- CCCC[C@H]1NC(=O)[C@@H](CCCCN)NC(=O)[C@H](CCCCCS)NC(=O)[C@@H](C)NC(=O)[C@H](CCCNC(=N)N)NC(=O)[C@@H]([C@H](C)O)NC(=O)[C@@H](CC(N)=O)NC(=O)[C@H](CCC(=O)O)NC1=O [des1.2.0, SHA-dLys-dNle-Glu-dAsn-dThr-Arg-dAla] (HELM PEPTIDE1{E.[dN].[dT].R.[dA].[O=C([C@H](CCCCCS)N[*:1])[*:2]].[dK].[CCCC[C@@H](N[*:1])C(=O)[*:2]]}$PEPTIDE1,PEPTIDE1,1:R1-8:R2$$$V2.0): 5.00
- N=C(N)NCCC[C@H]1NC(=O)[C@H]2CCCN2C(=O)[C@@H](Cc2c[nH]cn2)NC(=O)[C@H](Cc2ccc(O)cc2)NC(=O)[C@H](CCCCCS)NC(=O)[C@H](CCc2ccccc2)NC(=O)[C@@H](CCCCN)NC(=O)[C@H](CC(=O)O)NC(=O)[C@@H]2CCCN2C1=O [des3.2.2, SHA-Tyr-dHis-dPro-dArg-Pro-Asp-dLys-C27] (HELM PEPTIDE1{D.[dK].[O=C([C@H](CCc1ccccc1)N[*:1])[*:2]].[O=C([C@H](CCCCCS)N[*:1])[*:2]].Y.[dH].[dP].[dR].P}$PEPTIDE1,PEPTIDE1,1:R1-9:R2$$$V2.0): 1.76

Provide log10(IC50) values for the following items, in order.
1. CCCC[C@H]1NC(=O)[C@H](Cc2ccccc2)NC(=O)[C@H](CCCCCS)NC(=O)[C@@H](CCCNC(=N)N)NC(=O)[C@H](CC(=O)O)NC(=O)[C@@H](CO)NC(=O)[C@@H](C)NC(=O)[C@H](CCCCN)NC1=O [des4.3.1, SHA-Phe-dNle-Lys-dAla-dSer-Asp-dArg] (HELM PEPTIDE1{D.[dR].[O=C([C@H](CCCCCS)N[*:1])[*:2]].F.[CCCC[C@@H](N[*:1])C(=O)[*:2]].K.[dA].[dS]}$PEPTIDE1,PEPTIDE1,1:R1-8:R2$$$V2.0)
2. N=C(N)NCCC[C@@H]1NC(=O)[C@@H](CCCNC(=N)N)NC(=O)[C@H]2CCCN2C(=O)[C@@H](CO)NC(=O)[C@H](Cc2ccc(O)cc2)NC(=O)[C@H](CCCCCS)NC(=O)[C@H](CCc2ccccc2)NC(=O)[C@@H](CCC(N)=O)NC(=O)[C@H](CC(=O)O)NC1=O [des3.3.2, SHA-Tyr-dSer-dPro-dArg-Arg-Asp-dGln-C27] (HELM PEPTIDE1{D.[dQ].[O=C([C@H](CCc1ccccc1)N[*:1])[*:2]].[O=C([C@H](CCCCCS)N[*:1])[*:2]].Y.[dS].[dP].[dR].R}$PEPTIDE1,PEPTIDE1,1:R1-9:R2$$$V2.0)

A)
1. 2.54
2. 1.70

* * *

target: HDAC6 (Homo sapiens, UniProt Q9UBN7); construct: purchased Reaction Biology Corporation (assay run by the CRO); experiment: HDAC6 inhibition, full IC50 measurement (Reaction Biology; fluorogenic p53 peptide RHKK(Ac)AMC); assay type: biochemical; settings: Conc. 4.57E-09 M, t1
Sequence (Q9UBN7 whole entry): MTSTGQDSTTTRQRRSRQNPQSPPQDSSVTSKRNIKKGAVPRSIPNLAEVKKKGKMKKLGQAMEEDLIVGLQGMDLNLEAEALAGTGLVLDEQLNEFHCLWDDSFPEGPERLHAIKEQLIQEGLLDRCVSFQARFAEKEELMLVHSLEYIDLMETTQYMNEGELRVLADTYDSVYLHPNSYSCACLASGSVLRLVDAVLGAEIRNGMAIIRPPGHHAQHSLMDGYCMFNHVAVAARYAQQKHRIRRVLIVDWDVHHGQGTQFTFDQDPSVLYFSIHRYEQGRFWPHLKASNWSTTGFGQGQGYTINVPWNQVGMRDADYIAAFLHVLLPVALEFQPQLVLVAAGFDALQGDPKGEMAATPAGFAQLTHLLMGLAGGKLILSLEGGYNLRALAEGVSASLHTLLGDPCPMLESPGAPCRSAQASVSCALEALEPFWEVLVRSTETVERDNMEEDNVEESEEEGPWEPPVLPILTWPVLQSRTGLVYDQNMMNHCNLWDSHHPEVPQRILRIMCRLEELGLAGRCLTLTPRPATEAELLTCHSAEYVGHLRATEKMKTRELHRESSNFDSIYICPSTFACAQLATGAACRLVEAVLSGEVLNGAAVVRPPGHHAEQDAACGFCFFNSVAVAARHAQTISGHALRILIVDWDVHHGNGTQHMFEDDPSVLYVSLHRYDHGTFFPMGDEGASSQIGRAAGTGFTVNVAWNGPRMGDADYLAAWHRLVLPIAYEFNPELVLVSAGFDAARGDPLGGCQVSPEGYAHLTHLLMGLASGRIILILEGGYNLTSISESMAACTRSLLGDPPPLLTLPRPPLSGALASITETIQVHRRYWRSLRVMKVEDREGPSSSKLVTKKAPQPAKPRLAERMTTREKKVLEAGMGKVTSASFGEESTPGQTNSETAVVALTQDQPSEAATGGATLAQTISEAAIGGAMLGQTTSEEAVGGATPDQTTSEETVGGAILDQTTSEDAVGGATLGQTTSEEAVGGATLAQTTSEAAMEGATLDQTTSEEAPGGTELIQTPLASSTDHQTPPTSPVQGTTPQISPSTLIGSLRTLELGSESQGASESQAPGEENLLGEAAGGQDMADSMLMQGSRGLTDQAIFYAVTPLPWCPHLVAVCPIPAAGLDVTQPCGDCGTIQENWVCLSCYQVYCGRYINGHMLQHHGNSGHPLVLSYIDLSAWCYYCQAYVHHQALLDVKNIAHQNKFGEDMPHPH
Peptide text beside a SMILES is read from it.
Parameter: HDAC6 activity raw data (signal)
One number for each entry.

Briefly, HDAC6 activity raw data (signal) measured for CCCC[C@H]1NC(=O)[C@H](Cc2ccccc2)NC(=O)[C@H](CCCCCS)NC(=O)[C@@H](CO)NC(=O)[C@H](CC(=O)O)NC(=O)[C@@H](CO)NC(=O)[C@@H](C)NC(=O)[C@H](CCCCN)NC1=O [des4.3.1.1, SHA-Phe-dNle-Lys-dAla-dSer-Asp-dSer] (HELM PEPTIDE1{D.[dS].[O=C([C@H](CCCCCS)N[*:1])[*:2]].F.[CCCC[C@@H](N[*:1])C(=O)[*:2]].K.[dA].[dS]}$PEPTIDE1,PEPTIDE1,1:R1-8:R2$$$V2.0) : 1570327

* * *

molecular target: HDAC6 (Homo sapiens); construct: purchased Reaction Biology Corporation (assay run by the CRO); assay: HDAC6 inhibition, full IC50 measurement (Reaction Biology; fluorogenic p53 peptide RHKK(Ac)AMC); type: biochemical; conditions: Conc. 3.33E-06 M, t2
Peptide text beside a SMILES is read from it.
Parameter: HDAC6 activity raw data (signal)
Give bare numbers.

Tested on HDAC6 (Homo sapiens), the item N=C(N)NCCC[C@@H]1NC(=O)[C@@H](CCCNC(=N)N)NC(=O)[C@H]2CCCN2C(=O)[C@@H](Cc2c[nH]cn2)NC(=O)[C@H](Cc2ccc(O)cc2)NC(=O)[C@H](CCCCCS)NC(=O)[C@H](CCc2ccccc2)NC(=O)[C@@H](CO)NC(=O)[C@H](CC(=O)O)NC1=O [des3.3.1, SHA-Tyr-dHis-dPro-dArg-Arg-Asp-dSer-C27] (HELM PEPTIDE1{[O=C([C@H](CCCCCS)N[*:1])[*:2]].Y.[dH].[dP].[dR].R.D.[dS].[O=C([C@H](CCc1ccccc1)N[*:1])[*:2]]}$PEPTIDE1,PEPTIDE1,1:R1-9:R2$$$V2.0) showed HDAC6 activity raw data (signal) equal to 5827
